The reported measurements were obtained from the OligoGym collection.

- assayed system: COX10
- test: pooled miR-30 sensor sort-seq; sequence = guide strand; note: reference of the scale not given here
- measurement context: shRNA
Below: a set of entries, each annotated with reported sensor-assay potency score (higher = more potent).
result type: sensor-assay potency score (higher = more potent)

chain	measured
TCTGCGTCCACGTAGAAGCGGA	-0.792
TTTCTGCTTTGGCTTGACCTGA	-0.722
TGCAGTGGTACTTACAACCAGA	-1.05
TTATCTACCTACAATCCCTTTA	-0.2
TTGAAATGAGGAAACTGCCAGG	-0.59
TTTCTGGACAAAGATAGGCTGG	-0.448
TTGTTTAACTCTCCCACCCCGA	-0.416
TTCTTTGTCCTATTCATGTTTG	-0.705
TTTAGAAGGAACTGCTTCCAAC	-0.611
TTCGTTTATAATCTTGTTCTAA	0.241
TTTGAGGAAGCTAAAGTGCTGA	0.14
ATAATCTTGTTCTAAACCCAGC	-0.854

====

Below: a set of entries, each annotated with reported sensor-assay potency score (higher = more potent).
- assayed system: ROBO3
- test: pooled miR-30 sensor sort-seq; sequence = guide strand
- measurement context: shRNA
result type: sensor-assay potency score (higher = more potent)

chain	measured
TTGGCCATTGTCTTGAACTGGA	-0.232
TTCATCTGGGTGGAGCACCCGC	-0.884
TTCGTTGTAATATCTGTCGTCC	0.714
TTGTAATATCTGTCGTCCGGGT	-0.931
TCTTAGCACAGTACTTTGCTGG	-0.938
TTCAGCTGCCGCACTCTCCCGT	-0.447
TTGTCTTGAACTGGAGGTCATC	-1.28

====

- assayed system: UBA1
- test: pooled miR-30 sensor sort-seq; sequence = guide strand
- measurement context: shRNA
Below: a set of entries, each annotated with reported sensor-assay potency score (higher = more potent).
result type: sensor-assay potency score (higher = more potent)

chain	measured
ATTCTTGTAGGAGTCAAGCTGT	0.0651
TTGACATCAAAGGTGAGCGGGT	-0.267
TATGTCTGCTTCACTGCCGTTC	-0.544

====

- assayed system: MAMSTR
- test: pooled miR-30 sensor sort-seq; sequence = guide strand
- measurement context: shRNA
result type: sensor-assay potency score (higher = more potent)

chain	measured
TAGACTTGGTCCCCGACACTGG	-0.651
TTGTCTCCGATCCTGTGTCTGC	-0.79
TCTGAAGTTCCAACTTGTGTGG	-0.0798

====

- assayed system: ACRV1
- test: pooled miR-30 sensor sort-seq; sequence = guide strand
- measurement context: shRNA
result type: sensor-assay potency score (higher = more potent)

chain	measured
ATAATTTGCATCCTCGTTCCAT	-0.172
TCTTCTTTAACATGCACTGCTG	-0.6
TTTGCATCCTCGTTCCATGGGA	0.226

====

Below: a set of entries, each annotated with reported sensor-assay potency score (higher = more potent).
- assayed system: ANXA11
- test: pooled miR-30 sensor sort-seq; sequence = guide strand
- measurement context: shRNA
result type: sensor-assay potency score (higher = more potent)

chain	measured
TTGAAAACTGCTACCAGGTGGG	-0.0336
ATCTTCAGCAGAATCTTCCGGT	0.075
TATTCTTGAGACATTTCACCAC	0.412

====

- assayed system: C6orf118
- test: pooled miR-30 sensor sort-seq; sequence = guide strand
- measurement context: shRNA
Below: a set of entries, each annotated with reported sensor-assay potency score (higher = more potent).
result type: sensor-assay potency score (higher = more potent)

chain	measured
TCTCAGATGATTCTGATCGTTC	-0.778
TACACAGGGTCTTCACTCCTGG	-0.203
TTGTATAGCTTCATGCTCTATG	0.444
TAGAGGTAGACGTCCTCCCGGT	-0.61

====

Below: a set of entries, each annotated with reported sensor-assay potency score (higher = more potent).
- assayed system: ACYP2
- test: pooled miR-30 sensor sort-seq; sequence = guide strand
- measurement context: shRNA
result type: sensor-assay potency score (higher = more potent)

chain	measured
TTGCTTGTTGAAAACATAGTTG	-0.594
TCTGTATACATTCTGAAGCAAA	-1.22
TTCATTAGAAAAGTTTGTGCGG	0.328
TATTCTAGTATACATAGTCTTA	-0.674
TTTTCATTAGAAAAGTTTGTGC	-0.116
TTGAGTAAAATTATTTCAGTGT	0.361
TAGTCTTAAGAACATACAGTAT	-1.07
TTCATCTTCTGTATACATTCTG	0.635
TACTCTGCTACTATTATTCTAG	-0.38

====

Below: a set of entries, each annotated with reported sensor-assay potency score (higher = more potent).
- assayed system: FAM57A
- test: pooled miR-30 sensor sort-seq; sequence = guide strand
- measurement context: shRNA
result type: sensor-assay potency score (higher = more potent)

chain	assayed system	measured
TGATGTGTGATCATGAGGCGGT	FAM57A	0.245
TTGGAGCAGGCTTAGTCCCTGC	FAM57A	-0.863
ATCACGTCGTCGCAGGAGCGAA	FAM57A	-1.8

====

Below: a set of entries, each annotated with reported sensor-assay potency score (higher = more potent).
- assayed system: PQLC1
- test: pooled miR-30 sensor sort-seq; sequence = guide strand
- measurement context: shRNA
result type: sensor-assay potency score (higher = more potent)

chain	measured
TTGAGCTCGTTGGCCACACGGA	-0.78
ATGAGCACCATCTTGATGCTCA	-0.811
TCTGCAGCTGTAAAGGAGCGGC	-0.795

====

- assayed system: LNX1
- test: pooled miR-30 sensor sort-seq; sequence = guide strand
- measurement context: shRNA
Below: a set of entries, each annotated with reported sensor-assay potency score (higher = more potent).
result type: sensor-assay potency score (higher = more potent)

chain	measured
TAGTTAGAGTAATTCTTCCTTT	-0.396
TAGATGATCATACTTTTCCTGA	-0.507
TTGGATAATGATATGGACCAGT	-0.0255
TTGAGAATCACATGAAAGCTGT	0.307

====

Below: a set of entries, each annotated with reported sensor-assay potency score (higher = more potent).
- assayed system: APOBEC3A
- test: pooled miR-30 sensor sort-seq; sequence = guide strand
- measurement context: shRNA
result type: sensor-assay potency score (higher = more potent)

chain	measured
AATCTTACTATTGTGTACTTGG	0.0307
TATTCTGAGAATATTGAGCATA	-1.17
TTGATCGGGAGCATACTGCTTT	0.642
TAAAAATCTACTTGATCGGGAG	0.575

====

- assayed system: CETN1
- test: pooled miR-30 sensor sort-seq; sequence = guide strand
- measurement context: shRNA
result type: sensor-assay potency score (higher = more potent)

chain	measured
TTTTGAACGAGATCTTCCCGGT	0.317
TTCGCGTCGATGGTCCCACTTC	-0.957
TTTGGTGTCCTTCTCGGACATC	-1.04

====

Below: a set of entries, each annotated with reported sensor-assay potency score (higher = more potent).
- assayed system: FABP1
- test: pooled miR-30 sensor sort-seq; sequence = guide strand
- measurement context: shRNA
result type: sensor-assay potency score (higher = more potent)

chain	measured
TTTATTGTCACCTTCCAACTGA	0.758
ACTGTCTTGACTTTCTCCCCTG	-0.45
TTCCGGCAGACCGATTGCCTTC	-1.36
TATTGTCACCTTCCAACTGAAC	-1.49
TTCCAACTGAACCACTGTCTTG	-1.23
TTTGGATCACTTTGGACCCAGC	-1.41
TCGTTTTGGATCACTTTGGACC	-1.43
TTTTGGATCACTTTGGACCCAG	-0.408

====

Below: a set of entries, each annotated with reported sensor-assay potency score (higher = more potent).
- assayed system: TRMT1
- test: pooled miR-30 sensor sort-seq; sequence = guide strand
- measurement context: shRNA
result type: sensor-assay potency score (higher = more potent)

chain	assayed system	measured
TAGTACAGAGGCACGTCCGGGA	TRMT1	-0.101
TTGCGTGTCCTTCTCTCCTGGA	TRMT1	-0.847
TTGTTCTGAAGCAGCCTGCGTC	TRMT1	-0.663
TAGTCTCTGATAGTCGCTCCCG	TRMT1	-0.643

====

- assayed system: DDB2
- test: pooled miR-30 sensor sort-seq; sequence = guide strand
- measurement context: shRNA
result type: sensor-assay potency score (higher = more potent)

chain	measured
TGACACATCATCTTCCCTGAGT	0.0365
TCTCCTGTGACCACCATTCGGC	-0.886
TTTGCCGTCCATGTTCAGCAGG	-0.642
AACTCGGATCTCGCTCTTCTGG	-1.5

====

Below: a set of entries, each annotated with reported sensor-assay potency score (higher = more potent).
- assayed system: SLC10A3
- test: pooled miR-30 sensor sort-seq; sequence = guide strand
- measurement context: shRNA
result type: sensor-assay potency score (higher = more potent)

chain	measured
TTAAGGGACCTGTGCCACCACC	-1.35
TAGAGGATTGGGTTTTCCGAGA	-0.917
TTTTCTGAGTGCATAGTGCATG	-0.554
